test: Comparative in vivo bioavailability study in the dog (oral gavage, plasma LC-MS-MS)
measurement parameters: Beagle, plasma, po, 0.8 mg/kg, oral tapentadol valine carbamate 0.8 mg tapentadol base equiv/kg, median of 5 dogs, read-out: Tmax of tapentadol
Method: Test substances (i.e., tapentadol (1 mg/kg) and tapentadol valine carbamate (0.8 mg tapentadol base equivalents/kg)) were administered by oral gavage to a group of five dogs (dog nos. 1, 2, 3, 4 and 5) in a two-way crossover design. […] Blood samples were taken at various times after administration and submitted to analysis for the parent drug and pro-drug using a validated LC-MS-MS assay. Pharmacokinetic parameters derived from the plasma analytical data were determined using Win Nonlin.
quantity measured: Tmax
Quick note: unit goes after the number.

Q: Name the recorded Tmax of the item CC[C@@H](c1cccc(O)c1)[C@@H](C)CN(C)C (racemic) [Tapentadol] in your answer.
Ans: 1 h

====

test: Comparative bioavailability after oral administration to rats (plasma LC-MS-MS)
Assay type: in vivo
measurement parameters: male, Sprague Dawley, rat, plasma, po, 10 mg free base equiv/kg, oral tapentadol 10 mg free base equiv/kg, 6 h, mean, animal 5 excluded, read-out: Plasma concentration of tapentadol
quantity measured: concentration at 6 h (ng/mL)
Response body: numeric value in ng/mL, unit text excluded.

Q: Name the recorded concentration at 6 h of the item CC[C@@H](c1cccc(O)c1)[C@@H](C)CN(C)C (racemic) [Tapentadol] in your answer.
Ans: 1.45

====

test: Comparative bioavailability after oral or intravenous administration to monkeys (plasma LC-MS-MS)
Type: in vivo, cynomolgus monkey
measurement parameters: male, cynomolgus monkey, plasma, iv, 0.5 mg/kg, male monkey, i.v. tapentadol valine carbamate 0.5 mg tapentadol free base equiv/kg; individual animals 1-5; read-out: Vss of tapentadol valine carbamate
quantity measured: Vd (L/kg)
Response body: numeric value in L/kg, unit text excluded.

Q: Name the recorded Vd of the item CC[C@H](c1cccc(OC(=O)N[C@H](C(=O)O)C(C)C)c1)[C@H](C)CN(C)C (racemic) [Tapentadol valine carbamate] in your answer.
Ans: 0.75

====

test: Comparative bioavailability after oral or intravenous administration to monkeys (plasma LC-MS-MS)
Type: in vivo, cynomolgus monkey
measurement parameters: male, cynomolgus monkey, plasma, po, 1 mg tapentadol free base equiv/kg, male monkey, oral tapentadol valine carbamate 1 mg tapentadol free base equiv/kg; individual animals 1-5; read-out: t½ of tapentadol valine carbamate (converted)
quantity measured: half-life (h)
Response body: numeric value in h, unit text excluded.

Q: Name the recorded half-life of the item CC[C@H](c1cccc(OC(=O)N[C@H](C(=O)O)C(C)C)c1)[C@H](C)CN(C)C (racemic) [Tapentadol valine carbamate] in your answer.
Ans: 2.28

====

test: Comparative bioavailability after oral administration to rats (plasma LC-MS-MS)
Type: in vivo
measurement parameters: male, Sprague Dawley, rat, plasma, po, 10 mg free base equiv/kg, oral tapentadol 10 mg free base equiv/kg, mean, animal 5 and estimates excluded, read-out: t½ of tapentadol (converted)
quantity measured: half-life (h)
Response body: numeric value in h, unit text excluded.

Q: Name the recorded half-life of the item CC[C@@H](c1cccc(O)c1)[C@@H](C)CN(C)C (racemic) [Tapentadol] in your answer.
Ans: 2.64

====

test: Comparative in vivo bioavailability study in the dog (oral gavage, plasma LC-MS-MS)
measurement parameters: Beagle, plasma, po, 0.8 mg/kg, oral tapentadol valine carbamate 0.8 mg tapentadol base equiv/kg, mean of 5 dogs, read-out: AUC of tapentadol
quantity measured: AUC (ng·h/mL)
Response body: numeric value in ng·h/mL, unit text excluded.

Q: Name the recorded AUC of the item CC[C@@H](c1cccc(O)c1)[C@@H](C)CN(C)C (racemic) in your answer.
Ans: 34.2

Cited source for all entries: patent US20100227921A1
